Reported values: Ki for PKA (Homo sapiens, UniProt P17612), one per item.

Fill in Ki for each of the 6 compounds listed.
1. CC(C)C(O)C(=O)Nc1nc(-c2c[nH]c3ncccc23)cs1 (stereo not drawn)
2. O=C(CO)Nc1nc(-c2c[nH]c3ncccc23)cs1
3. COc1cccc(CC(=O)Nc2nc(-c3c[nH]c4ncccc34)c(C)s2)c1
4. O=C(Cc1ccccc1)Nc1nc(-c2c[nH]c3nccc(Cl)c23)cs1
5. NCCC(C(=O)Nc1nc(-c2c[nH]c3ncccc23)cs1)c1ccc(F)cc1F (stereo not drawn)
6. O=C(NCCc1cccc(F)c1)c1ccc(-c2c[nH]c3ncccc23)s1

Result:
< 500 nM
500 to 5000 nM
500 to 5000 nM
< 500 nM
< 500 nM
< 500 nM

----------
Reported values: pKi for PKA (Homo sapiens), one per item.
pKi: −log10 of the molar value.

# annotated cases, reported pKi shown
compound	pKi
CS(=O)(=O)Nc1ccc(F)c(CC(=O)Nc2nc(-c3c[nH]c4ncc(F)cc34)cs2)c1	> 6.30
O=C(Nc1nc(-c2c[nH]c3ncccc23)cs1)C1CCCNC1 (stereo not shown)	> 6.30
O=C(Nc1nc(-c2c[nH]c3ncccc23)cs1)C1CCNCC1	5.30 to 6.30
NCCC(=O)Nc1nc(-c2c[nH]c3ncccc23)cs1	> 6.30
O=C(Cc1cccc(S(=O)(=O)N2CCOCC2)c1)Nc1nc(-c2c[nH]c3ncc(Cl)cc23)cs1	5.30 to 6.30
O=C(Cc1cccc(S(=O)(=O)N2CCNCC2)c1)Nc1nc(-c2c[nH]c3ncccc23)cs1	> 6.30
O=C(Nc1nc(-c2c[nH]c3ncc(Br)cc23)cs1)C1CC1	5.30 to 6.30
CC(C)S(=O)(=O)Nc1ccc(CC(=O)Nc2nc(-c3c[nH]c4ncccc34)cs2)c(Cl)c1	> 6.30

Fill in pKi for each of the 4 compounds listed.
1. CS(=O)(=O)Nc1ccc(F)c(CC(=O)Nc2nc(-c3c[nH]c4ncccc34)cs2)c1
2. O=C(Cc1ccccc1F)Nc1nnc(-c2c[nH]c3ncccc23)s1
3. O=C(NCCO)Nc1nc(-c2c[nH]c3ncccc23)cs1
4. COc1cccc(CC(=O)Nc2ccc(-c3c[nH]c4ncccc34)s2)c1

Result:
> 6.30
> 6.30
5.30 to 6.30
> 6.30

Fill in pKi for each of the 4 compounds listed.
1. O=C(Cc1ccc(F)cc1F)Nc1nc(-c2c[nH]c3ncc(F)cc23)cs1
2. O=C(Cc1cccc(S(=O)(=O)N2CCOCC2)c1)Nc1nc(-c2c[nH]c3ncc(Br)cc23)cs1
3. CCN(CC)S(=O)(=O)c1cccc(CC(=O)Nc2csc(-c3c[nH]c4ncccc34)n2)c1
4. O=C(NCc1cccc(S(=O)(=O)N2CCOCC2)c1)c1csc(-c2c[nH]c3ncccc23)c1

Result:
["> 6.30", "5.30 to 6.30", "5.30 to 6.30", "5.30 to 6.30"]

Fill in pKi for each of the 3 compounds listed.
1. CC(=O)N(CCCN1CCN(C)CC1)c1nc(-c2c[nH]c3ncccc23)cs1
2. O=C(Nc1nc(-c2c[nH]c3ncccc23)cs1)C1(O)CC1
3. NCCC(C(=O)Nc1nc(-c2c[nH]c3ncccc23)cs1)c1ccccc1 (stereo not shown)

Result:
["5.30 to 6.30", "> 6.30", "> 6.30"]
